# credit: ChEMBL document CHEMBL3632529

Provide the recorded MIC for the entries that follow.
tested on: Haemophilus influenzae; assay: Antibacterial activity against Haemophilus influenzae ATCC 49247 after overnight incubation by broth microdilution method; format: functional

Which measured MIC value corresponds to FC(F)(F)c1ccc(-n2cc(Cn3cnc4ccccc43)nn2)cc1 ?
> 128 µg/mL

Record request: MIC value, item Cc1ccc2nc(-c3ccc(NCc4cn(Cc5cc(=O)oc6cc(O)ccc56)nn4)cc3)sc2c1
> 128 µg/mL

Quick one: MIC for Clc1cc(Cl)cc(-n2cc(Cn3cnc4ccccc43)nn2)c1 ?
> 128 µg/mL

Find the recorded MIC belonging to CC[C@H]1OC(=O)[C@H](C)[C@@H](O[C@H]2C[C@@](C)(OC)[C@@H](O)[C@H](C)O2)[C@H](C)[C@@H](O[C@@H]2O[C@H](C)C[C@H](N(C)C)[C@H]2O)[C@](C)(O)C[C@@H](C)CN(C)[C@H](C)[C@@H](O)[C@]1(C)O and report it.
2 µg/mL

Looking for the measured MIC of Clc1ccc(-n2cc(Cn3cnc4ccccc43)nn2)cc1 , can you help?
> 128 µg/mL

Query (compound): Fc1ccccc1-n1cc(Cn2cnc3ccccc32)nn1 ; field requested: MIC
> 128 µg/mL
